System: HIV latent primary CD4+ T cells
Experiment: T cell activation by plate-coated anti-BTN3A antibody plus anti-CD3, IFNγ expression (V-PLEX)
Format: cell-based, human
Conditions: production of IFNγ, with anti-CD3, Yes/No
measuredAttribute: Antibody function T cell activation

- molecule: "2A (antibody, V domains shown) VH: QVQLVQSGAEVKKPGASVKVSCKASGYTFTSYYIHWVRQAPGQGLEWMGIINPSGGSTSYAQKFQGRVTMTRDTSTSTVYMELSSLRSEDTAVYYCARATWEALHYWGQGTLVTVSS VL: EIVMTQSPATLSVSPGERATLSCRASQSVGSNLAWYQQKPGQAPRLLIYGASTRATGIPARFSGSGSGTEFTLTISSLQSEDFAVYYCQQYYAWPRTFGGGTKVEIK"
  measuredValue: "No"
- molecule: "3B (antibody, V domains shown) VH: QVQLVQSGAEVKKPGASVKVSCKASGYTFTSYYMHWVRQAPGQGLEWMGIINPSGGSTSYAQKFQGRVTMTRDTSTSTVYMELSSLRSEDTAVYYCARPSGDYSGYDALDVWGQGTMVTVSS VL: EIVLTQSPATLSLSPGERATLSCRASQSVSSYLAWYQQKPGQAPRLLIYDASNRATGIPARFSGSGSGTDFTLTISSLEPEDFAVYYCQQDPYWPITFGGGTKVEIK"
  measuredValue: "Yes"
- molecule: "3A (antibody, V domains shown) VH: QVQLVQSGAEVKKPGASVKVSCKASGYTFTSYYMHWVRQAPGQGLEWMGIINPGGGSTSYAQKFQGRVTMTRDTSTSTVYMELSSLRSEDTAVYYCARDAGHDYGDMAYWGQGTLVTVSS VL: DIQMTQSPSTLSASVGDRVTITCRASQSISSWLAWYQQKPGKAPKLLIYKASSLESGVPSRFSGSGSGTEFTLTISSLQPDDFATYYCQQYRSFPTFGGGTKVEIK"
  measuredValue: "Yes"
- molecule: "1G (antibody, V domains shown) VH: QVQLVQSGAEVKKPGASVKVSCKASGYTFTSYGISWVRQAPGQGLEWMGWISAYNGNTNYAQKLQGRVTMTTDTSTSTAYMELRSLRSDDTAVYYCARLGATVAYFDLWGRGTLVTVSS VL: EIVLTQSPATLSVSPGERATLSCRASQSVSSNLAWYQQKPGQAPRLLIYGASTRATGIPARFSGSGSGTEFTLTISSLQSEDFAVYYCQQDVYWPFTFGGGTKVEIK"
  measuredValue: "Yes"

Numbers sourced from patent US20220064291A1.
